Reported IC50 values are given for each entry in this list.
# TARGET_OR_TEST_SYSTEM: UniProtKB P48067
# Sequence (P48067 whole entry): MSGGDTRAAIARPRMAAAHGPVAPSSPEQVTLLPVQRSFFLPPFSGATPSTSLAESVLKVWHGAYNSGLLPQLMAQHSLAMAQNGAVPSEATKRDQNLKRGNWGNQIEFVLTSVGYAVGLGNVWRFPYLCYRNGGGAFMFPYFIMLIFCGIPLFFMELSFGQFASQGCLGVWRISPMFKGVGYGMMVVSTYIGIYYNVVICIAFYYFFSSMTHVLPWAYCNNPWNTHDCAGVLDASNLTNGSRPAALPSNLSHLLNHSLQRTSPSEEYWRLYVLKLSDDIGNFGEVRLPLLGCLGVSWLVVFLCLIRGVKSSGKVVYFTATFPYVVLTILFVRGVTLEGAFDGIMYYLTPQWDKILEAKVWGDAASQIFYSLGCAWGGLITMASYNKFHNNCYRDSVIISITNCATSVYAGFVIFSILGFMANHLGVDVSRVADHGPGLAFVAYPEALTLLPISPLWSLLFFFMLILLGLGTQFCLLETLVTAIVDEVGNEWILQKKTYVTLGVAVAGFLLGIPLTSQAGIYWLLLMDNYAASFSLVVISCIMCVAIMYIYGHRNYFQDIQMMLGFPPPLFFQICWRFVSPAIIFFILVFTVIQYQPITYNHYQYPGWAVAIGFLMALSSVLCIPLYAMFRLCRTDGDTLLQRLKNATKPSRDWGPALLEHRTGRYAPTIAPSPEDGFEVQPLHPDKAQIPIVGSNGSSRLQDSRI
# METHOD_NOTES: [3H]-Glycine uptake into recombinant CHO cells expressing human GlyT1
# Type: cell-based
# CONDITIONS_USED: hGlyT1c_5_CHO cells, 200 nM [3H]-glycine
Where a name gives a salt, the structure may show the parent alone.

Examples with their reported IC50 follow.
| COMPOUND | IC50 |
| --- | --- |
| CC(C)(O)CS(=O)(=O)NCCOc1ccc2c(c1)C(C1(c3ccc(Cl)cc3)CCC1)NCC2 (stereo not shown) [Example 103, hydrochloride] | ≤ 0.1 µM |
| O=S(=O)(NCCOc1ccc2c(c1)C(C1(c3cccc(F)c3)CCC1)NCC2)c1cccs1 (stereo not shown) [Example 106, hydrochloride] | ≤ 10 µM |
| O=S(=O)(CCCOc1ccc2c(c1)C(C1(c3ccc(Cl)cc3)CCC1)NCC2)Nc1ccccc1 (stereo not shown) [Example 112, hydrochloride] | ≤ 10 µM |

Continue with the next compound.
// O=S(=O)(CCCN1CCOCC1)NCCOc1ccc2c(c1)C(C1(c3ccc(Cl)cc3)CCC1)NCC2 (stereo not shown) [Example 201] : IC50 value = ≤ 100 µM
